Origin of the recorded values: ChEMBL document CHEMBL1828497

Ki values recorded for Cannabinoid receptor 2 (Homo sapiens)
metric_name: Ki

molecule_smiles=COCCn1cc(C(=O)c2ccccc2-c2ccccc2)c2ccccc21 result="0.631 µM"
molecule_smiles=CCCCCn1cc(C(=O)c2ccc(-c3ccccc3)cc2)c2ccccc21 result="0.0398 µM"
molecule_smiles=COCCn1cc(C(=O)c2cccc(-c3ccccc3)c2)c2ccccc21 result="> 1 µM"
molecule_smiles=COCCn1cc(C(=O)c2cccc3ccccc23)c2ccncc21 result="0.0251 µM"
molecule_smiles=CCCCCn1cc(C(=O)Nc2ccc3ccccc3c2)c2ccccc21 result="0.631 µM"
molecule_smiles=COCCn1cc(C(=O)c2cccc3ccccc23)c2cccnc21 result="0.2 µM"

###

test: Dissociation constant, pKa of the compound by fast UV-metric method; format: physicochemical
metric_name: pKa

compound=CCCCCn1cc(C(=O)c2cccc3ccccc23)c2ccncc21 relation== recorded_number=5.83
compound="Cc1c(C(=O)c2cccc3ccccc23)c2cccc3c2n1[C@H](CN1CCOCC1)CO3 [WIN-552122]" relation== recorded_number=4.14
compound=COCCn1cc(C(=O)c2cccc3ccccc23)c2cccnc21 relation=< recorded_number=2
compound=CCCCCn1cc(C(=O)c2cccc3ccccc23)c2cccnc21 relation=< recorded_number=2
compound=COCCn1cc(C(=O)c2cccc3ccccc23)c2ccncc21 relation== recorded_number=5.8
compound="CCCCCCC(C)(C)c1cc(O)c2c(c1)OC(C)(C)C1CCC(=O)CC21 (stereo not drawn) [NABILONE]" relation== recorded_number=10.6
compound="CCCCCCC(C)(C)c1ccc([C@@H]2C[C@H](O)CC[C@H]2CCCO)c(O)c1 [CP-55940]" relation== recorded_number=11.2
compound=CCCCCn1cc(C(=O)c2cccc3ccccc23)c2cnccc21 relation== recorded_number=6.49

###

test: physchem; settings: phosphate buffer, pH 7.4
Description: Thermodynamic solubility of the compound in phosphate buffer at pH 7.4 after 24 hrs by HPLC analysis
metric_name: solubility thermodynamic at 24 h

molecule=COCCn1cc(C(=O)Nc2cccc3ccccc23)c2ccccc21 result="3 µM"
molecule=CCCCCn1cc(C(=O)c2cccc(-c3ccccc3)c2)c2ccccc21 result="< 1 µM"
molecule=CCCCCn1cc(C(=O)c2cccc3ccccc23)c2cccnc21 result="1 µM"
molecule=CCCCCn1cc(C(=O)Nc2cccc3ccccc23)c2ccccc21 result="< 1 µM"
molecule=CCCCCn1cc(C(=O)c2cccc3ccccc23)c2ccncc21 result="4 µM"
molecule=CCCCCn1cc(C(=O)c2ccccc2-c2ccccc2)c2ccccc21 result="< 1 µM"
molecule=COCCn1cc(C(=O)c2ccc(-c3ccccc3)cc2)c2ccccc21 result="< 1 µM"
molecule=COCCn1cc(C(=O)c2cccc3ccccc23)c2cccnc21 result="3 µM"
molecule=COCCn1cc(C(=O)Nc2ccc3ccccc3c2)c2ccccc21 result="< 1 µM"
molecule=CCCCCn1cc(C(=O)c2ccc(-c3ccccc3)cc2)c2ccccc21 result="< 1 µM"
molecule="Cc1c(C(=O)c2cccc3ccccc23)c2cccc3c2n1[C@H](CN1CCOCC1)CO3 [WIN-552122]" result="5 µM"
molecule=CCCCCn1cc(C(=O)c2cccc3ccccc23)c2ccccc21 result="< 1 µM"
molecule=COCCn1cc(C(=O)c2cccc(-c3ccccc3)c2)c2ccccc21 result="< 1 µM"
molecule="CCCCCCC(C)(C)c1cc(O)c2c(c1)OC(C)(C)C1CCC(=O)CC21 (configuration not stated) [NABILONE]" result="< 1 µM"
molecule=COCCn1cc(C(=O)c2ccccc2-c2ccccc2)c2ccccc21 result="< 1 µM"
molecule="CCCCCCC(C)(C)c1ccc([C@@H]2C[C@H](O)CC[C@H]2CCCO)c(O)c1 [CP-55940]" result="2 µM"
molecule=CCCCCn1cc(C(=O)Nc2ccc3ccccc3c2)c2ccccc21 result="< 1 µM"
